System: perennial ryegrass (Lolium perenne) seeds
Test: Petri dish root-inhibition bioassay on perennial ryegrass seeds
Type: in vivo
Conditions: 13 μg/cm^2 dipeptide on filter paper; average of 2 trials
Where a SMILES comes first, the peptide text is derived from it.
Note to self: values exactly at 70% are 1. So Root Length of Perennial Ryegrass Seedlings Expressed as a Percentage of the Control at or above 70% is 1, below is -1.

# bool: Root Length of Perennial Ryegrass Seedlings Expressed as a Percentage of the Control of C[C@H](N)C(=O)N[C@@H](CC(N)=O)C(=O)O [Ala-Asn, alaninylasparagine] (H-Ala-Asn-OH) >= 70%
1

State whether the measured Root Length of Perennial Ryegrass Seedlings Expressed as a Percentage of the Control reaches 70%, counting equality as reaching it, for C[C@H](N)C(=O)N[C@@H](C)C(=O)O [Ala-Ala, alaninyl-alanine] (H-Ala-Ala-OH)
-1

Please tell me: is the molecule NC(=O)CC[C@H](NC(=O)[C@@H](N)CCC(N)=O)C(=O)O [Gln-Gln, glutaminyl-glutamine] (H-Gln-Gln-OH) at or over 70% in terms of Root Length of Perennial Ryegrass Seedlings Expressed as a Percentage of the Control?
1
